Target: BIRC7 (Homo sapiens)
Assay: NanoBRET cellular target engagement, full-length BIRC7
Conditions: Tracer KD,app ± SEM, BIRC7, full-length, n = 4
pKd: −log10 of the molar value.
Endpoint: pKd

compound="CNC(C)C(=O)NC(C(=O)N1CCCC1c1nc(C(=O)c2cccc(OCCOCCOCCNC(=O)CCc3ccc4n3[B-](F)(F)[N+]3=C(c5ccc[nH]5)C=CC3=C4)c2)cs1)C1CCCCC1 (stereo not shown) [IAP Tracer]" target_under_test="BIRC7 (Homo sapiens)" reading=6.60

---

Target: BIRC7 (Homo sapiens, UniProt Q96CA5)
Sequence (Q96CA5 1-298): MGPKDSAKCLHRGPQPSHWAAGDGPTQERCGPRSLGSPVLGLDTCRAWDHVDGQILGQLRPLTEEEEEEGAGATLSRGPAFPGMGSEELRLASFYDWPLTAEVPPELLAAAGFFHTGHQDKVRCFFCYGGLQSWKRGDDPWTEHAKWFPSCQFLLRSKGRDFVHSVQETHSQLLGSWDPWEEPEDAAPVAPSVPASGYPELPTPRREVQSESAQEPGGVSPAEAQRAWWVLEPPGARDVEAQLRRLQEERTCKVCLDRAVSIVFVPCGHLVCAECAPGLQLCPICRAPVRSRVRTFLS
Test: NanoBRET cellular target engagement, full-length BIRC7
Binarize EC50 at 30 nM; below is satisfied, at or above is not satisfied.

substance_smiles=CN[C@@H](C)C(=O)N[C@H](C(=O)N1CCC[C@H]1C(=O)N[C@@H]1CCCc2ccccc21)C1CCCCC1 assigned_class=satisfied
substance_smiles=CN[C@@H](C)C(=O)N[C@H](C(=O)N1CCC[C@H]1c1nc(C(=O)c2ccc(F)cc2)cs1)C1CCCCC1 assigned_class=satisfied
substance_smiles=CN[C@@H](C)C(=O)N[C@H]1CN(C(=O)CC(C)C)CC[C@H]2CC[C@@H](C(=O)NC(c3ccccc3)c3ccccc3)N2C1=O assigned_class=satisfied
substance_smiles=CN[C@@H](C)C(=O)N[C@H](C(=O)N1CCC[C@H]1C(=O)Nc1snnc1-c1ccccc1)C1CCCCC1 assigned_class="not satisfied"
substance_smiles=CN[C@@H](C)C(=O)N[C@H](C(=O)N1CCC[C@H]1C(=O)N[C@H]1c2ccccc2C[C@H]1OCC#CC#CCO[C@@H]1Cc2ccccc2[C@@H]1NC(=O)[C@@H]1CCCN1C(=O)[C@@H](NC(=O)[C@H](C)NC)C1CCCCC1)C1CCCCC1 assigned_class=satisfied

---

Biological target: BIRC1 BIR[2] (Homo sapiens)
Sequence (Q13075 139-251): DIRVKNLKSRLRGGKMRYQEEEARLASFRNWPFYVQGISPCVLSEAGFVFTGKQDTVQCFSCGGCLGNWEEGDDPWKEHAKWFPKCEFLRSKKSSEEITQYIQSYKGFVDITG
Test: NanoBRET cellular target engagement, single domain BIRC1 BIR[2]
pEC50: −log10 of the molar value.
Returns class 1 if the recorded pEC50 is greater than or equal to 6, and class 0 otherwise.

substance_smiles=CC[C@H](NC(=O)[C@H](C)NC)C(=O)N1C[C@@H](O)C[C@H]1Cc1c(-c2[nH]c3cc(F)ccc3c2C[C@@H]2C[C@H](O)CN2C(=O)[C@H](CC)NC(=O)[C@H](C)NC)[nH]c2cc(F)ccc12 target_under_test="BIRC1 BIR[2] (Homo sapiens)" assigned_class="class 0"
substance_smiles=CN[C@@H](C)C(=O)N[C@H]1CN(C(=O)CC(C)C)CC[C@H]2CC[C@@H](C(=O)NC(c3ccccc3)c3ccccc3)N2C1=O target_under_test="BIRC1 BIR[2] (Homo sapiens)" assigned_class="class 1"
substance_smiles=CN[C@@H](C)C(=O)N[C@H](C(=O)N1CCC[C@H]1C(=O)Nc1sc(-c2ncco2)nc1-c1ccccc1)C1CCCCC1 target_under_test="BIRC1 BIR[2] (Homo sapiens)" assigned_class="class 0"
substance_smiles=CN[C@@H](C)C(=O)N[C@H](C(=O)N1CCC[C@H]1C(=O)Nc1snnc1-c1ccccc1)C1CCCCC1 target_under_test="BIRC1 BIR[2] (Homo sapiens)" assigned_class="class 0"
